Recorded Endpoint: melting point

Lab note: measured melting point of CCOC(=O)c1cccc2c1CCCC2C(N)=O (stereo unspecified) was 160 to 162 °C

Lab note: measured melting point of CCCCCCCCCCCCCCCCS(=O)(=O)OC1CN(C2CCC3(C)C(CCC4C3CCC3(C)C(C(C)CCCC(C)C)CCC43)C2)C1 (stereo unspecified) was 64.5 to 68 °C

Lab note: measured melting point of Cc1nn2ccccc2c1C(=O)c1cccnc1 was 89 to 90 °C

Lab note: measured melting point of NC(=O)Cn1c(=O)c(=O)[nH]c2ccccc21 was > 300 °C

Lab note: measured melting point of CC(=O)NC[C@H]1CN(c2ccc(N3CCC(O)(C#N)CC3)c(F)c2)C(=O)O1 was 99 to 100 °C

Lab note: measured melting point of CC(C)(C)OC(=O)N1CCC(ON=C(c2ccccc2)c2cc3ccncc3[nH]2)C1 (stereo unspecified) was 80 to 82 °C

Lab note: measured melting point of CCOC(=O)Cc1cccc(N)c1 was 135 °C

Lab note: measured melting point of COc1cc(Cc2cnc(NCCO)nc2N)cc(OC)c1OC was 146 °C

Lab note: measured melting point of CCN(CC)C(=O)CCc1cc(-c2ccc(Cl)cc2)n(-c2ccc(OC)cc2)n1 was 111 to 112 °C

Lab note: measured melting point of c1ccc2c(c1)c1ccccc1n2-c1ccc2c(c1)Oc1ccc(-n3c4ccccc4c4ccccc43)cc1O2 was 348 °C

Lab note: measured melting point of COc1cc(OC)c2c(=O)[nH]c(-c3ccc(N4CCC(O)CC4)cc3)nc2n1 was 284 to 286 °C

###

Recorded Endpoint: melting point

Lab note: measured melting point of OCc1cc(OC2CCCC2)c(OC(F)F)cn1 was 85 to 86 °C

Lab note: measured melting point of CCC(C)c1nn(-c2ccc(C(F)(F)F)cn2)cc1C=O (stereo not drawn) was 82 to 83 °C

Lab note: measured melting point of ON=C1CCC(c2ccccc2F)c2ccccc21 (stereo not drawn) was 120 °C

Lab note: measured melting point of O=S(=O)(c1ccc(Cl)cc1)C(c1cc(F)ccc1F)c1cc(Cl)ncc1Cl (stereo not drawn) was 147 to 148 °C

Lab note: measured melting point of CCOC(=O)C1Cc2sc(N)c(C(=O)c3ccccc3Cl)c2C1 (stereo not drawn) was 121 to 122 °C

Lab note: measured melting point of CCN1c2ncccc2C(=O)Nc2c(C)cc(N3CCC[C@H]3CO)nc21 was 238 to 240 °C

Lab note: measured melting point of CCOc1c([N+](=O)[O-])cnn1-c1c(Cl)cc(C(F)(F)F)cc1Cl was 84 to 86 °C

Lab note: measured melting point of CC(=O)c1ccc(OC2SCC(O)C(O)C2O)cn1 (stereo not drawn) was 178 to 179 °C

Lab note: measured melting point of O=c1oc(CCc2ccccc2)cc(O)c1SCc1ccccc1 was 164 to 166 °C

Lab note: measured melting point of CC(C)CNC(=O)C=Cc1ccc(OCc2ccccc2)c([N+](=O)[O-])c1 was 166 to 167 °C

Lab note: measured melting point of O=C(O)c1cccc2cc(-c3ccc(Cl)cc3)oc12 was 228 to 230 °C

Lab note: measured melting point of COC(=O)Cn1c(=O)[nH]c(=O)c2ccc(Cl)cc21 was 255 to 258 °C

Lab note: measured melting point of CCCc1csc(NS(=O)(=O)c2cccc(Cl)c2C)n1 was 169 °C

Lab note: measured melting point of Cc1ccccc1C1CN(C(=O)OC(C)(C)C)CCC1=O (stereo not drawn) was 97 to 99 °C

Lab note: measured melting point of CCCOc1ccc(F)c2c(=O)c(-c3ccc(OC)cc3)cn(CC(=O)NC3CCNCC3)c12 was 226 to 228 °C

Lab note: measured melting point of C/C(=N\O)[C@H]1CC[C@H]2[C@@H]3CCC4=CC(=O)CC[C@]4(C)[C@H]3CC[C@]12C was 220 to 221 °C

Lab note: measured melting point of O=C(O)c1ccc(Cn2cnc3ccc(Cl)c(C(=O)O)c32)cc1 was 291 to 292 °C

Lab note: measured melting point of N#Cc1ccc(Cn2cncc2CN2CCC3(CC2)C(=O)Nc2ccccc23)cc1 was 245 to 247 °C

Lab note: measured melting point of COc1cc(NCCO)c([N+](=O)[O-])c(NCCO)c1 was 150 °C

Lab note: measured melting point of O=C(O)c1ccc(COCc2csc3nc(C(=O)NCc4ccc(Cl)c(Cl)c4)[nH]c(=O)c23)cc1 was 252 to 253 °C

Lab note: measured melting point of CN1CCN(c2cccc3nc4n(c(=O)c23)-c2ccc(F)cc2C4=O)CC1 was 232 to 233 °C

Lab note: measured melting point of CN1CC(CO)OC1=C(C#N)C=C1Nc2ccccc2C1=O (stereo not drawn) was 236 to 238 °C

Lab note: measured melting point of CC(C)CCOc1c(-c2ccc(S(C)(=O)=O)cc2)cnn(-c2ccc(F)c(F)c2)c1=O was 121 to 123 °C

Lab note: measured melting point of Cc1cc(Oc2c(F)cc(C(F)(F)F)cc2Cl)n[nH]1 was 116 to 117 °C

Lab note: measured melting point of COC(C(N)=S)c1ccccn1 (stereo not drawn) was 157 to 159 °C

Lab note: measured melting point of CCCCNC(=O)Oc1ccc(Oc2ccc(Cl)cc2)cc1 was 106 to 108 °C

Lab note: measured melting point of CC(=O)NCC1CC(c2ccc(C3=CCN(C(=O)OC(C)(C)C)CC3)cc2)=NO1 (stereo not drawn) was 117 to 120 °C

Lab note: measured melting point of Cc1nc(Nc2ccc(F)cc2)nc(N2CCc3ccccc3C2CO)c1C (stereo not drawn) was 198 to 200 °C

Lab note: measured melting point of CCOCn1c(C(OC(C)=O)c2ccccc2)c(C(C)C)c(=O)[nH]c1=O (stereo not drawn) was 158 °C

Lab note: measured melting point of CCn1cc(C(=O)O)c(=O)c2c(C)c(F)c(F)cc21 was > 300 °C

Lab note: measured melting point of NC(=O)N(c1ccccc1)c1nc(Cl)nc(Cl)n1 was 151 to 154 °C

Lab note: measured melting point of CNC(NCCNCc1ccc(CN(C(C)C)C(C)C)o1)=C(C#N)C#N was 79 to 80 °C

Lab note: measured melting point of Oc1cc2c(cc1CCCCSc1cccnc1)OCC2 was 130 to 131 °C

Lab note: measured melting point of Nc1c(S)ccc2ccccc12 was 36 to 37 °C

Lab note: measured melting point of O=C(O)CC1(c2ccccc2)Oc2ccccc2O1 was 152 to 153 °C

Lab note: measured melting point of O=C(CC(=O)c1cccn1Cc1ccc(F)cc1)c1ccncn1 was 128 to 129 °C

Lab note: measured melting point of Cn1nc(-c2ccc(F)cc2)c(-c2ccncc2)c1C=CCc1ccccc1 was 136 to 137 °C

Lab note: measured melting point of COc1ccc2c(c1OCc1ccccc1)CC(C(=O)O)N(C(=O)N(C)c1ccccc1)C2 (racemic) was 134 to 136 °C

###

Recorded Endpoint: melting point

Lab note: measured melting point of O=C(Nc1ccccc1Sc1ccccc1-c1nnn[nH]1)c1ccc(OCCCCc2ccccc2)cc1 was 156 to 159 °C

Lab note: measured melting point of COc1cc(C(=O)O)cc(CCc2ccccc2)c1C(=O)O was 242 to 244 °C

Lab note: measured melting point of O=S(=O)(O)CCCCCCN1CCN(Cc2ccccc2)CC1 was 228 to 230 °C

Lab note: measured melting point of O=C(OC1N=C(c2ccccc2)c2ccccc2NC1=O)c1cc2ccccc2[nH]1 (racemic) was 271 to 273 °C

Lab note: measured melting point of COc1cc2c(cc1F)OCC21C(=O)N(Cc2ccc(C(F)(F)F)o2)c2ccccc21 (stereo not drawn) was 132 to 134 °C

Lab note: measured melting point of O=C(c1ccccc1)C(c1cccc2ccccc12)P(=O)(O)O (stereo not drawn) was 184 to 187 °C

Lab note: measured melting point of N#Cc1cnc2cc(I)ccc2c1Cl was 165 to 167 °C

Lab note: measured melting point of COCOc1cc(C(=O)OC)[nH]n1 was 54 to 55 °C

Lab note: measured melting point of Cc1cc(C)c(-c2cn(C)c3nc(N)n(C)c(=O)c23)c(C)c1 was 229 to 231 °C

Lab note: measured melting point of COC(=O)CC(NC(=O)CC1CCCCC1)C(C)=O (stereo not drawn) was 75 to 76 °C

Lab note: measured melting point of O=c1[nH]c2cccc(Br)c2c(=O)o1 was 280 to 281 °C

Lab note: measured melting point of COC(=O)C(C)(C)Cc1c(SC(C)(C)C)c2cc(O)ccc2n1Cc1ccc(Cl)cc1 was 170 to 171 °C

Lab note: measured melting point of C=CCOc1cc2c(cc1C(C)=O)CCCC2 was 62 to 63 °C
